Would you mind telling me the reported body weight of each entry?
Assay: Body and organ weights of cynomolgus monkeys (Example 46)
Type: in vivo
Conditions: day 22
Strand notation (5' to 3'): a small letter for the sugar, then the base; units joined by * are phosphorothioate-linked, units joined directly phosphodiester-linked; [ ] holds rarer units or linkages, { } end groups; capitals alone tell only the bases. e = 2'-O-(2-methoxyethyl) (MOE); [5mC] = 5-methylcytosine; d = 2'-deoxy (DNA)
All answers are understood in g, so give the number only.

Recorded body weight (substance ISIS 416858: MOE gapmer, nucleobases 1275 to 1318 of SEQ ID NO: 1 (Table 8) (antisense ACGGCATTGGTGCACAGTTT; MOE gapmer, wing and gap sizes not given here) ): 2188

# body weight of ISIS 445522: 5-8-5 or 6-8-6 MOE microwalk gapmer (Table 44) (antisense eG*e[5mC]*eA*e[5mC]*eA*dG*dT*dT*dT*d[5mC]*dT*dG*dG*e[5mC]*eA*eG*eG*e[5mC]) = 2114

Recorded body weight (substance ISIS 449708: 3-8-3, 4-8-4, 2-10-2, 3-10-3 or 4-10-4 MOE microwalk gapmer (Table 46) (antisense eA*e[5mC]*eA*dG*dT*dT*dT*d[5mC]*dT*dG*dG*e[5mC]*eA*eG) ): 2110

body weight reported for this substance ISIS 449707: 3-8-3, 4-8-4, 2-10-2, 3-10-3 or 4-10-4 MOE microwalk gapmer (Table 46) (antisense e[5mC]*eA*e[5mC]*eA*dG*dT*dT*dT*d[5mC]*dT*dG*dG*e[5mC]*eA*eG*eG) : 2142

ISIS 449710: 3-8-3, 4-8-4, 2-10-2, 3-10-3 or 4-10-4 MOE microwalk gapmer (Table 46) (antisense e[5mC]*eA*e[5mC]*dA*dG*dT*dT*dT*d[5mC]*dT*dG*dG*d[5mC]*eA*eG*eG) yielded body weight of 2177

Lookup result for ISIS 445531: 5-8-5 or 6-8-6 MOE microwalk gapmer (Table 44) (antisense eG*eG*e[5mC]*eA*eT*dT*dG*dG*dT*dG*d[5mC]*dA*d[5mC]*eA*eG*eT*eT*eT) ; measured body weight: 2143

Given item ISIS 449711: 3-8-3, 4-8-4, 2-10-2, 3-10-3 or 4-10-4 MOE microwalk gapmer (Table 46) (antisense eA*e[5mC]*dA*dG*dT*dT*dT*d[5mC]*dT*dG*dG*d[5mC]*eA*eG) , the value recorded as its body weight is 2171

Lab note: measured body weight of ISIS 449709: 3-8-3, 4-8-4, 2-10-2, 3-10-3 or 4-10-4 MOE microwalk gapmer (Table 46) (antisense eG*e[5mC]*eA*e[5mC]*dA*dG*dT*dT*dT*d[5mC]*dT*dG*dG*d[5mC]*eA*eG*eG*e[5mC]) was 2117

body weight reported for this substance ISIS 416850: MOE gapmer, nucleobases 1275 to 1318 of SEQ ID NO: 1 (Table 8) (antisense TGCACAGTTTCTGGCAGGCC; MOE gapmer, wing and gap sizes not given here) : 2139
